Assay type: physicochemical
Conditions: stored at room temperature (21-25° C.), day 90
# Stability in Powder Concentrate (content by LCMSMS) values compiled below
The reply should contain only the number, in mg/g powder.

In the examples that follow, each entry is paired with its recorded Stability in Powder Concentrate (content by LCMSMS).
{"columns": ["Compound", "Measurement"],
 "data": [
  ["CCCCCc1cc(O)c2c(c1)OC(C)(C)c1ccc(C)cc1-2 [CBN, cannabinol]", 0.483],
  ["CCCCCc1cc(O)c2c(c1)OC1(C)CCC3C1C2C3(C)C (stereo not drawn) [CBL, cannabicyclol]", 0.050],
  ["CCCCCc1cc(O)c2c(c1)OC(C)(CCC=C(C)C)C=C2 (stereo not drawn) [CBC, cannabichromene]", 0.068]
]}

Inquiry: What Stability in Powder Concentrate (content by LCMSMS) value was documented for this compound, CCCCCc1cc2c(c(O)c1C(=O)O)[C@@H]1C=C(C)CC[C@H]1C(C)(C)O2 [D9 THCA, delta-9-tetrahydrocannabinolic acid] ?
Reply text: 0.147

Inquiry: Request the reported Stability in Powder Concentrate (content by LCMSMS) associated with Cc1c(C)c2c(c(C)c1OC(=O)CCC(=O)O)CC[C@@](C)(CCC[C@H](C)CCC[C@H](C)CCCC(C)C)O2 [α-Tocopheryl succinate]
Reply text: 1.83

Inquiry: Which value of Stability in Powder Concentrate (content by LCMSMS) has been reported for CCCCCc1cc(O)c(C/C=C(\C)CCC=C(C)C)c(O)c1 [CBG, cannabigerol] in the records?
Reply text: 1.13
